Please go through the items and note down their APOE RNA (% UTC).
Test system: human APOE RNA
Test: Dose-dependent inhibition of human APOE RNA in differentiated SH-SY5Y cells, free uptake, 5 days (Example 5)
Assay type: cell-based
Details: 512 nM, 5 days (Table 14)
Strand notation (5' to 3'): a small letter for the sugar, then the base; units joined by * are phosphorothioate-linked, units joined directly phosphodiester-linked; [ ] holds rarer units or linkages, { } end groups; capitals alone tell only the bases. [ms] = mesyl phosphoramidate linkage; e = 2'-O-(2-methoxyethyl) (MOE); k = constrained ethyl (cEt); [5mC] = 5-methylcytosine; d = 2'-deoxy (DNA)
Express it in % UTC; write the number only.

Query: Enter reported APOE RNA (% UTC) observed with human APOE RNA for 1785617: modified oligonucleotide complementary to human APOE RNA (k[5mC]*dT[ms]dT[ms]kG*dG[ms]kT*dG[ms]dA[ms]dA[ms]dT[ms]d[5mC]*dT*dT*dT*dA*dT*kT*kA*dA[ms]kA; antisense) [compound 1785617]
Result: 56

Query: Enter reported APOE RNA (% UTC) observed with human APOE RNA for 1746784 (k[5mC]*kT*kT*dG[ms]dG[ms]dT[ms]dG[ms]dA[ms]dA[ms]dT*d[5mC]*dT*dT*dT*dA[ms]dT*kT*kA*dA[ms]kA; antisense) [Compound 1746784]
Result: 62

Query: Enter reported APOE RNA (% UTC) observed with human APOE RNA for Aes^mCeoTeoTesGesGksTdsGdzAdzAdzTds^mCdsTdsTdsTdsAdzTksTksAesAe (eA*e[5mC]eTeT*eG*kG*dT*dG[ms]dA[ms]dA[ms]dT*d[5mC]*dT*dT*dT*dA[ms]kT*kT*eA*eA) [Compound No. 1757576]
Result: 32

Query: Enter reported APOE RNA (% UTC) observed with human APOE RNA for 1785598: modified oligonucleotide complementary to human APOE RNA (k[5mC]*kT*kT*dG[ms]dG[ms]dT[ms]dG[ms]dA[ms]dA[ms]dT*d[5mC]*dT*dT*dT*dA*dT[ms]kT*kA*dA[ms]kA; antisense) [compound 1785598]
Result: 39

Query: Enter reported APOE RNA (% UTC) observed with human APOE RNA for 1778130: modified oligonucleotide complementary to human APOE RNA (eA*e[5mC]eTeTeG*kG*dT*dG[ms]dA[ms]dA*dT*d[5mC]*dT*dT*dT*dA[ms]kTkT*eA*eA; antisense) [compound 1778130]
Result: 56

Query: Enter reported APOE RNA (% UTC) observed with human APOE RNA for 1746809 (k[5mC]*dT[ms]kT*dG[ms]kG*dT[ms]dG[ms]dA[ms]dA[ms]dT*d[5mC]*dT*dT*dT*dA[ms]dT*dT[ms]kA*kA*kA; antisense) [Compound 1746809]
Result: 57

Query: Enter reported APOE RNA (% UTC) observed with human APOE RNA for 1757575 (eA*e[5mC]eTeT*kG*kG*dT*dG[ms]dA[ms]dA[ms]dT*d[5mC]*dT*dT*dT*dA[ms]kT*eT*eA*eA; antisense) [Compound 1757575]
Result: 30

Query: Enter reported APOE RNA (% UTC) observed with human APOE RNA for 1785599: modified oligonucleotide complementary to human APOE RNA (k[5mC]*kT*kT*dG[ms]dG[ms]dT[ms]dG[ms]dA[ms]dA[ms]dT[ms]d[5mC]*dT*dT*dT*dA*dT*kT*kA*dA[ms]kA; antisense) [compound 1785599]
Result: 20

Query: Enter reported APOE RNA (% UTC) observed with human APOE RNA for ^mCksTksTksGdzGdzTdzGdzAdzAdzTds^mCdsTdsTdsTdsAdsTdsTksAksAdzAk (antisense k[5mC]*kT*kT*dG[ms]dG[ms]dT[ms]dG[ms]dA[ms]dA[ms]dT*d[5mC]*dT*dT*dT*dA*dT*kT*kA*dA[ms]kA) [Compound No. 1785602]
Result: 32

Query: Enter reported APOE RNA (% UTC) observed with human APOE RNA for 1746804 (k[5mC]*kT*kT*dG[ms]dG[ms]dT[ms]dG[ms]dA[ms]dA[ms]dT*d[5mC]*dT*dT*dT*dA[ms]dT*dT[ms]kA*kA*kA; antisense) [Compound 1746804]
Result: 82

Query: Enter reported APOE RNA (% UTC) observed with human APOE RNA for 1778131: modified oligonucleotide complementary to human APOE RNA (eA*e[5mC]eTeTeGkG*dT*dG[ms]dA[ms]dA*dT*d[5mC]*dT*dT*dT*dA[ms]kTkT*eA*eA; antisense) [compound 1778131]
Result: 31

Query: Enter reported APOE RNA (% UTC) observed with human APOE RNA for 1778128: modified oligonucleotide complementary to human APOE RNA (eA*e[5mC]eTeTkGkG*dT*dG[ms]dA[ms]dA*dT*d[5mC]*dT*dT*dT*dA[ms]kTeT*eA*eA; antisense) [compound 1778128]
Result: 32

Query: Enter reported APOE RNA (% UTC) observed with human APOE RNA for 1778111: modified oligonucleotide complementary to human APOE RNA (eA*e[5mC]eTeTeG*kG*dT*dG[ms]dA[ms]dA*dT*d[5mC]*dT*dT*dT*dA[ms]eTeT*eA*eA; antisense) [compound 1778111]
Result: 62
